meta.source: ChEMBL document CHEMBL1144442

Listed here: items and their measured pIC50.
# Species: Mus musculus
# ASSAY_EXPLANATION: In vitro inhibitory concentration necessary to neutralize Gram-negative bacterial lipopolysaccharide in mouse model
# Format: functional, organism-based
# CONDITION_SUMMARY: Mus musculus
pIC50: −log10 of the molar value. Residues, ends and D or L forms follow the SMILES beside them.
MEASUREMENT_NAME: pIC50

compound=COc1ccc(CCN(CC(=O)N(CCC(c2ccccc2)c2ccccc2)CC(N)=O)C(=O)CNCCC(c2ccccc2)c2ccccc2)cc1 quantitative_result=4.30
compound="NC(=O)CN(CCC(c1ccccc1)c1ccccc1)C(=O)CN(CCC(c1ccccc1)c1ccccc1)C(=O)CNCC1CCCO1 (stereo not drawn) [TRIMER I]" quantitative_result=4.40
compound="CC(C)C[C@@H]1NC(=O)[C@H](CCCN=C(N)N)NC(=O)[C@H](CCCN=C(N)N)NC(=O)[C@H](Cc2ccccc2)NC(=O)[C@H]([C@@H](C)O)NC(=O)[C@@H]2CCCN2C(=O)[C@H](CCCCN)NC(=O)[C@@H](NC(=O)CN)CSSC[C@@H](C(=O)NCC(=O)O)NC(=O)[C@H](CCCCN)NC(=O)[C@H](Cc2ccc(O)cc2)NC(=O)[C@H](CCCCN)NC(=O)[C@H](Cc2c[nH]c3ccccc23)NC(=O)[C@H](CCCCN)NC1=O (HELM PEPTIDE1{G.C.K.P.T.F.R.R.L.K.W.K.Y.K.C.G}$PEPTIDE1,PEPTIDE1,2:R3-15:R3$$$V2.0)" quantitative_result=4.19
